Recorded measurements of AUC, one per entry
- measurement-notes: Pharmacokinetics study: exposure in inner ear, perilymph and tail plasma after single oral dose
- Format: in vivo, Wistar rats
- condition-set: male, Wistar, rat, perilymph, po, 10 mg/kg, 10 mg/kg p.o., Time 120 (min); per-interval AUC of azasetron free-base; read-out: Perilymph AUC (converted)

Prompt: Which AUC value is on record for CN1C(=O)COc2c(C(=O)N[C@@H]3CN4CCC3CC4)cc(Cl)cc21 [(−)-azasetron] ?
Response: 0.0363 µM·h

Prompt: GET /values?readout=AUC&item= CN1C(=O)COc2c(C(=O)N[C@H]3CN4CCC3CC4)cc(Cl)cc21 [(+)-azasetron]
Response: 0.129 µM·h

Prompt: // lookup AUC for CN1C(=O)COc2c(C(=O)NC3CN4CCC3CC4)cc(Cl)cc21 (racemic) [Racemic azasetron]
Response: 0.0635 µM·h

====

- measurement-notes: Pharmacokinetics study: exposure in inner ear, perilymph and tail plasma after single oral dose
- Assay type: in vivo, Wistar rats
- condition-set: male, Wistar, rat, tail plasma, po, 10 mg/kg, 10 mg/kg p.o., Time 240 (min); per-interval AUC of azasetron free-base; read-out: Tail plasma AUC (converted)
property-name: AUC (µM·h)
Respond numerically; units are µM·h and should not be typed.

Prompt: Form field: reported AUC of CN1C(=O)COc2c(C(=O)NC3CN4CCC3CC4)cc(Cl)cc21 (racemic) [Racemic azasetron]
Response: 0.758

Prompt: Item under review: CN1C(=O)COc2c(C(=O)N[C@@H]3CN4CCC3CC4)cc(Cl)cc21 [(−)-azasetron] . Reported AUC?
Response: 0.416

Others:
Prompt: Quick one: AUC of CN1C(=O)COc2c(C(=O)N[C@H]3CN4CCC3CC4)cc(Cl)cc21 [(+)-azasetron] ?
Response: 1.11

====

Let's look at some compounds and their measured AUC.
- measurement-notes: Pharmacokinetics study: exposure in inner ear, perilymph and tail plasma after single oral dose
- Type: in vivo, Wistar rats
- condition-set: male, Wistar, rat, perilymph, po, 10 mg/kg, 10 mg/kg p.o., Time 240 (min); per-interval AUC of azasetron free-base; read-out: Perilymph AUC (converted)
- Source text: The 72 male Wistar rats received on 28 Jan. 2016 from Janvier (Janvier, Le Genest-St-Isle) were assigned to the study. They were divided in 3 groups of 24 animals each, one group per test article. Each group was divided in […] subgroups according to the 6-termination time-points. […]
Show the value, then the unit it is measured in.

Prompt: I'd like to know its AUC. The compound in question is CN1C(=O)COc2c(C(=O)N[C@@H]3CN4CCC3CC4)cc(Cl)cc21 [(−)-azasetron]
Response: 0.0747 µM·h

Prompt: Tell me the measured AUC of CN1C(=O)COc2c(C(=O)NC3CN4CCC3CC4)cc(Cl)cc21 (racemic) [Racemic azasetron] , please.
Response: 0.117 µM·h

Further cases:
Prompt: Given CN1C(=O)COc2c(C(=O)N[C@H]3CN4CCC3CC4)cc(Cl)cc21 [(+)-azasetron] , state its recorded AUC.
Response: 0.227 µM·h

====

Listed next: entries and their corresponding AUC.
- measurement-notes: Pharmacokinetics study: exposure in inner ear, perilymph and tail plasma after single oral dose
- Format: in vivo, Wistar rats
- condition-set: male, Wistar, rat, inner ear, po, 10 mg/kg, 10 mg/kg p.o., Time 60 (min); per-interval AUC of azasetron free-base; read-out: Inner ear AUC (converted)
State the answer as a number, implicitly in µM·h.

Some compounds with known AUC results, for comparison:
Prompt: Endpoint output: AUC of CN1C(=O)COc2c(C(=O)N[C@H]3CN4CCC3CC4)cc(Cl)cc21 [(+)-azasetron] . Value?
Response: 0.127

Prompt: // returns reported AUC for input CN1C(=O)COc2c(C(=O)N[C@@H]3CN4CCC3CC4)cc(Cl)cc21 [(−)-azasetron]
Response: 0.0247

Continuing:
Prompt: Item CN1C(=O)COc2c(C(=O)NC3CN4CCC3CC4)cc(Cl)cc21 (racemic) [Racemic azasetron] has what recorded AUC?
Response: 0.0887

====

- measurement-notes: Pharmacokinetics study: exposure in inner ear, perilymph and tail plasma after single oral dose
- Format: in vivo, Wistar rats
- condition-set: male, Wistar, rat, inner ear, po, 10 mg/kg, 10 mg/kg p.o., Time 30 (min); per-interval AUC of azasetron free-base; read-out: Inner ear AUC (converted)
Documented AUC across a set of compounds
# number only, unit µM·h dropped from output

Here's what some known entries look like.
Prompt: So what does the record say about AUC for CN1C(=O)COc2c(C(=O)N[C@H]3CN4CCC3CC4)cc(Cl)cc21 [(+)-azasetron] ?
Response: 0.051

Prompt: What AUC value was documented for this compound, CN1C(=O)COc2c(C(=O)N[C@@H]3CN4CCC3CC4)cc(Cl)cc21 [(−)-azasetron] ?
Response: 0.0198

Now look at this entry.
Prompt: Could you share which AUC value was measured for CN1C(=O)COc2c(C(=O)NC3CN4CCC3CC4)cc(Cl)cc21 (racemic) [Racemic azasetron] ?
Response: 0.0336

====

# Lookup of reported concentration at 120 min keyed by entry
- measurement-notes: Pharmacokinetics study: exposure in inner ear, perilymph and tail plasma after single oral dose
- Type: in vivo, Wistar rats
- condition-set: male, Wistar, rat, inner ear, oral; 10 mg/kg p.o. single dose, Time 120 (min); read-out: Average Inner ear concentration (ng azasetron free-base/g tissue)
Report only the number, with the unit ng/g understood.

Below, each entry is followed by its recorded concentration at 120 min result.
Prompt: Could you share which concentration at 120 min value was measured for CN1C(=O)COc2c(C(=O)N[C@H]3CN4CCC3CC4)cc(Cl)cc21 [(+)-azasetron] ?
Response: 79

Prompt: Entry CN1C(=O)COc2c(C(=O)NC3CN4CCC3CC4)cc(Cl)cc21 (racemic) [Racemic azasetron] : reported concentration at 120 min = ?
Response: 35

Next:
Prompt: GET /values?readout=concentration at 120 min&item= CN1C(=O)COc2c(C(=O)N[C@@H]3CN4CCC3CC4)cc(Cl)cc21 [(−)-azasetron]
Response: 46

====

- measurement-notes: Pharmacokinetics study: exposure in inner ear, perilymph and tail plasma after single oral dose
- Format: in vivo, Wistar rats
- condition-set: male, Wistar, rat, inner ear, po, 10 mg/kg, 10 mg/kg p.o., Time 15 (min); per-interval AUC of azasetron free-base; read-out: Inner ear AUC (converted)
Entries and their AUC values follow.
Kindly provide the numeric value in µM·h only, without the unit symbol.

Prompt: Item CN1C(=O)COc2c(C(=O)N[C@H]3CN4CCC3CC4)cc(Cl)cc21 [(+)-azasetron] has what recorded AUC?
Response: 0.0204

Prompt: What value of AUC has been recorded for this entry: CN1C(=O)COc2c(C(=O)NC3CN4CCC3CC4)cc(Cl)cc21 (racemic) [Racemic azasetron]
Response: 0.0119

// switching to the query compound
Prompt: Would you mind telling me what AUC value was observed for CN1C(=O)COc2c(C(=O)N[C@@H]3CN4CCC3CC4)cc(Cl)cc21 [(−)-azasetron] ?
Response: 0.0102

====

- measurement-notes: Pharmacokinetics study: exposure in inner ear, perilymph and tail plasma after single oral dose
- Format: in vivo, Wistar rats
- condition-set: male, Wistar, rat, inner ear, oral; 10 mg/kg p.o. single dose, Time 30 (min); read-out: Average Inner ear concentration (ng azasetron free-base/g tissue)
property-name: concentration at 30 min

Examples with answers:
Prompt: So what's the measured concentration at 30 min for this one? CN1C(=O)COc2c(C(=O)NC3CN4CCC3CC4)cc(Cl)cc21 (racemic) [Racemic azasetron]
Response: 61 ng/g

Prompt: Could you share which concentration at 30 min value was measured for CN1C(=O)COc2c(C(=O)N[C@H]3CN4CCC3CC4)cc(Cl)cc21 [(+)-azasetron] ?
Response: 86 ng/g

Then there is this compound:
Prompt: I have this compound here, CN1C(=O)COc2c(C(=O)N[C@@H]3CN4CCC3CC4)cc(Cl)cc21 [(−)-azasetron] , and I need its recorded concentration at 30 min.
Response: 27 ng/g

FYI, the data here is from patent US11612605B2.
